measured_target: Coagulation factor XII (Homo sapiens, UniProt P00748)
Sequence (P00748 whole entry): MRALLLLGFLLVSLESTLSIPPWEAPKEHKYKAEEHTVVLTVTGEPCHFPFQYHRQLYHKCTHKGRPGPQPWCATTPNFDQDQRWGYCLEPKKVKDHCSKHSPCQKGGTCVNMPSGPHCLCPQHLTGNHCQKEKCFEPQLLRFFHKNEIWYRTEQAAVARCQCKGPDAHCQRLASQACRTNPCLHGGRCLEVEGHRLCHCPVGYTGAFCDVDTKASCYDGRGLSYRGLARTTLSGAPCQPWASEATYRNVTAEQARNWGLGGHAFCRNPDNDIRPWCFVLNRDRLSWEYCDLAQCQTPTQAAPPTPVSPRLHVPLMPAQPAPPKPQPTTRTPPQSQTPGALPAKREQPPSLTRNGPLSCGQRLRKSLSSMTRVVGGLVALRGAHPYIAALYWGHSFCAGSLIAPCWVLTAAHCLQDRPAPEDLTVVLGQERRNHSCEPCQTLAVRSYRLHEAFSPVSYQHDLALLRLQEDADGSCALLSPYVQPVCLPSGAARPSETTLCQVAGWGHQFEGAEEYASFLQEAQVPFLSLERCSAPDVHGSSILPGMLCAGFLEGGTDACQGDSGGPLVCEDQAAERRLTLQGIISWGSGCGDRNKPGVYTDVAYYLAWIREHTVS
pIC50: −log10 of the molar value.
observation_type: pIC50

molecule: CCOc1ccc(C[C@@H](NC(=O)c2ccccc2)C(=O)N[C@@H](Cc2ccccc2)C(=O)NCc2ccc(CN)cc2)cc1 [US9234000, 3]
assay_result: < 5.00
